B1: library; numbered along this chain (parent)
chain: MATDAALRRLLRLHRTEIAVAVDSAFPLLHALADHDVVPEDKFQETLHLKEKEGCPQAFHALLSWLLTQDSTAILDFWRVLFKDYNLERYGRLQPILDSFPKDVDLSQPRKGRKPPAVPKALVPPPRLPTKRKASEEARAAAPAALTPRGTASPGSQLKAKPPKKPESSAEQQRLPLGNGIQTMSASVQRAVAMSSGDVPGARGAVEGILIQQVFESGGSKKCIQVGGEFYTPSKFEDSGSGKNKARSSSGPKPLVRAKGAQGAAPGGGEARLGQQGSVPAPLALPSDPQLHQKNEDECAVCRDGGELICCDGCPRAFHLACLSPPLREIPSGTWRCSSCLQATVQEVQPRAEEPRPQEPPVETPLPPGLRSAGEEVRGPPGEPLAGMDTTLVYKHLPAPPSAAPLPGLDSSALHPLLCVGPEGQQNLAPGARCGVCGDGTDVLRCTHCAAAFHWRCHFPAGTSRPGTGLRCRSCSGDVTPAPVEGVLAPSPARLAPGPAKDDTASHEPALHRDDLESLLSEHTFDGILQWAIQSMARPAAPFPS

variants of: B1; assay: AIRE transcriptional activation functional score (insulin promoter-GFP; nonsense median 0, synonymous median 1) (normalised score); higher = higher AIRE activity (more reporter activation); details: with insulin promoter-GFP reporter in HEK293
Test readout: AIRE transcriptional activation functional score

| Variant descriptor | Numeric value |
| --- | --- |
| H35I | 0.107 |
| G369Q | 1.43 |
| A144Y | 1.48 |
| Q173V | 1.32 |
| D514A | 0.214 |
| G218D | 0.885 |
| S338I | 1.18 |
| D478G | 0.841 |
| P56S | 0.484 |
| E40F | -0.259 |
| T147M | 1.19 |
